- System: Daudi Cell Culture
- assay_method_text: Compound primary screening in Daudi cell culture
- Assay type: cell-based
- experimental_context: Homo sapiens, 168 h; Daudi cells, 1250 cells per well, reads on Day 7
Consider the following molecules; for each one, report its EC50.

Prompt: Need EC50, item CC(C)OC(=O)Nc1ccc(-c2ncc(-c3ccc(NC(=S)NCc4ccccc4)cc3S(=O)(=O)NC(C)(C)C)s2)cc1
Completion: < 1 µM

Prompt: Item under review: CC(=O)Nc1ccc(-c2cnc(-c3ccc(NC(=S)NC(C)C)cc3S(=O)(=O)NC(C)(C)C)s2)c(S(=O)(=O)NC(C)(C)C)c1 . Reported EC50?
Completion: < 1 µM

Prompt: Would you kindly share the measured EC50 for CC(C)NC(=S)Nc1ccc(-c2ncc(-c3ccc(NC(=O)NCc4ncc[nH]4)cc3S(=O)(=O)NC(C)(C)C)s2)cc1 ?
Completion: > 10 µM

Prompt: Requested field: EC50. Item: CC(=O)Nc1ccc(-c2cnc(-c3ccc(NC(=S)NCc4ccccc4)cc3)s2)c(S(=O)(=O)NC(C)(C)C)c1
Completion: < 5 µM

Prompt: Would you mind telling me what EC50 value was observed for CC(=O)N(C)c1ccc(-c2cnc(-c3ccc(NC(=S)NC(C)C)cc3)s2)c(S(=O)(=O)NC(C)(C)C)c1 ?
Completion: > 10 µM

Prompt: Requested field: EC50. Item: CC(C)OC(=O)Nc1ccc(-c2ncc(-c3ccc(N4CCN(Cc5ccccc5)C4=O)cc3S(=O)(=O)NC(C)(C)C)s2)cc1
Completion: > 10 µM

Prompt: Recorded EC50 for Cn1ccnc1Nc1ccc(-c2cnc(-c3ccc(N)cc3)s2)c(S(=O)(=O)NC(C)(C)C)c1 , please?
Completion: > 10 µM

Prompt: Given the molecule CC(=O)Nc1ccc(-c2cnc(-c3ccc(NC(=S)NC(C)C)cc3)s2)c(S(=O)(=O)NCCOCCO)c1 , what is its reported EC50?
Completion: > 10 µM

Prompt: Give the measured EC50 of CC(=O)Nc1ccc(-c2cnc(-c3ccc(NC(=O)OC(C)C)cc3)s2)c(S(=O)(=O)NC(C)(C)C)c1 .
Completion: < 5 µM

Prompt: Need EC50, item CCOC(=O)Nc1ccc(-c2cnc(-c3ccc(NC(=S)NC(C)C)cc3)s2)c(S(=O)(=O)NC(C)(C)C)c1
Completion: < 5 µM

Prompt: Report EC50 for CC(C)OC(=O)Nc1ccc(-c2ncc(-c3ccc(NC(=O)OCC4CCCCC4)cc3S(=O)(=O)NC(C)(C)C)s2)cc1 please.
Completion: < 1 µM

Prompt: # get_value(readout='EC50', item= CC(O)CNc1ccc(-c2cnc(-c3ccc(NC(=O)OC(C)C)cc3)s2)c(S(=O)(=O)NC(C)(C)C)c1 (centres unmarked) )
Completion: < 5 µM

Prompt: Name the recorded EC50 for CC(C)OC(=O)Nc1ccc(-c2ncc(-c3ccc(NC(=O)c4ccccc4)cc3S(=O)(=O)NC(C)(C)C)s2)cc1 .
Completion: < 1 µM

Prompt: // EC50 lookup, key: CC(C)OC(=O)Nc1ccc(-c2ncc(-c3ccc(CNS(C)(=O)=O)cc3S(=O)(=O)NC(C)(C)C)s2)cc1
Completion: < 10 µM
